Each entry below carries its reported self-splicing fitness (ln).
# protocol: self-splicing fitness, log relative to wild type (ln ratio); higher = more splicing; Tetrahymena group I intron in knt gene, E. coli kanamycin selection, DiMSum; sequences stand for … in CUCUCU…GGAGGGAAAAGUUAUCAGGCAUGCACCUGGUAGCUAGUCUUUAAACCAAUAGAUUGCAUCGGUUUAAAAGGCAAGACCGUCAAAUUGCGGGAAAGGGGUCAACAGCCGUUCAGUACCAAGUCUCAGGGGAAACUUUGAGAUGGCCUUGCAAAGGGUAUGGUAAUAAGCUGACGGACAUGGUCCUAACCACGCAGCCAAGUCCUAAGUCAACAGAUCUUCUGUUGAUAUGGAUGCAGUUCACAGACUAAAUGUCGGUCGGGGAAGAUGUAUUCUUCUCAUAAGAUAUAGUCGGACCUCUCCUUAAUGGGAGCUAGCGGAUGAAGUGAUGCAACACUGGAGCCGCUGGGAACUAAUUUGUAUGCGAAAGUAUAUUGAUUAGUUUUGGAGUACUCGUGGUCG;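 note: selection with 25 µg/mL kanamycin versus none on LB agar overnight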
# experimental conditions: 37 °C
Respond using a number only.

Here's what some known entries look like.
> print(dat)
        sequence.record            measurement.type  reported.value
1  GCAGAGCAAUAUUACGGAAC  self-splicing fitness (ln)          -0.993
2  AUCUAGCAAUAUUACGCGUU  self-splicing fitness (ln)          -0.994

Given "ACAAAGCAAUAUUACGAACC" , respond with its self-splicing fitness (ln).
-1.44

Item "UCCGAGCAAUAUUACGAAUU" : provide self-splicing fitness (ln)
-2.19

Hello, please tell me recorded self-splicing fitness (ln) for this one: "CACAAGCAAUAUUACGAUCG"
0.875

Quick one: give measured self-splicing fitness (ln) for "CUACAGCAAUAUUACGGGGC"
-2.57

Tell me measured self-splicing fitness (ln) for "ACAAAGCAAUAUUACGCCCA" please.
-0.225

Give recorded self-splicing fitness (ln). "AAAAAGCAAUAUUACGUUCG"
-1.04

Look up and report measured self-splicing fitness (ln) for this entry: "AAAGAGCAAUAUUACGUGCA"
-1.19

Give the value of self-splicing fitness (ln) reported for the following: "GGGAAGCAAUAUUACGGGUC"
-2.08

Dear colleague, please send me the reported self-splicing fitness (ln) for "AAAAAGCAAUAUUACGUCAG" when you can.
-1.14

// Input: "UUGUAGCAAUAUUACGGUUA" . Output its self-splicing fitness (ln) only.
-0.784

Quote self-splicing fitness (ln) reported for "GCGCAGCAAUAUUACGUUGA" please.
-0.504

Fill in reported self-splicing fitness (ln) for this entry: "GUCAAGCAAUAUUACGCAGG"
-2.3

Tell me its self-splicing fitness (ln) given "AGCGAGCAAUAUUACGAUCU" as the entry.
-0.579
